Where do the numbers come from? From patent US20230272056A1.

Here, each record is paired with measured Fold improvement in KD data.
# tested-system: T1, human LAP-TGFB1 Fc fusion (human)
# T1 construct: also called human LAP-TGFβ1-Fc; human LAP-TGFβ-Fc isoform 1
# T1 sequence (chain, as listed by the source limits assumed): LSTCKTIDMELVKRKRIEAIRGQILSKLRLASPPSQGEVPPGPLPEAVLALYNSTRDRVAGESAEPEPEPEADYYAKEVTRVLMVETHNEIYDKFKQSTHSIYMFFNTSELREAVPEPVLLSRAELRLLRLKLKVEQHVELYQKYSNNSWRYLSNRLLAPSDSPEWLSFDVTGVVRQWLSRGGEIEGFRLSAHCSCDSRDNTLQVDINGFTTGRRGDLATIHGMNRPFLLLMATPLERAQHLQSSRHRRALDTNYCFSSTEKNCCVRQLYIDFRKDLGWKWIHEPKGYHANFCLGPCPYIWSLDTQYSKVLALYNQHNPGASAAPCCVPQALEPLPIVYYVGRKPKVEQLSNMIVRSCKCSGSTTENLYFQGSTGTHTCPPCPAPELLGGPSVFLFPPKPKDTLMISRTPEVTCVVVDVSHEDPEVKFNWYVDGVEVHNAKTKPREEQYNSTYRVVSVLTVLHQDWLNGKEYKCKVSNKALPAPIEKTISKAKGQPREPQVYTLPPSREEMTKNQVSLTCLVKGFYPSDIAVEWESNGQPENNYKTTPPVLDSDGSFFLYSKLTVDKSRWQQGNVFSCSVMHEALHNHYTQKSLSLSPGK
# procedure-summary: SPR pH 7.4, antigen-Fc captured, Fab analyte
Answer with a number only, understood to be in fold.

| binder | assay-readout | measured-result |
| --- | --- | --- |
| 57BLH (Fab, V domains shown, also called 09BLM Fab) VH: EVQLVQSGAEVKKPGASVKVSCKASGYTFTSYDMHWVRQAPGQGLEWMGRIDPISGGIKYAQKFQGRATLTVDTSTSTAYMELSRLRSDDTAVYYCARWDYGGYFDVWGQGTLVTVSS VL: DIQMTQSPSSLSASVGDRVTITCRASQDIFNYLNWYQQKPGKAVKLLIYYTSHLETGVPSRFSGSGSGTDYTLTISSLQPEDFATYFCQQGDTLPWTFGQGTKLEIK | Fold improvement in KD | 723 |
| 60BLH (Fab, V domains shown, also called 12BLM Fab) VH: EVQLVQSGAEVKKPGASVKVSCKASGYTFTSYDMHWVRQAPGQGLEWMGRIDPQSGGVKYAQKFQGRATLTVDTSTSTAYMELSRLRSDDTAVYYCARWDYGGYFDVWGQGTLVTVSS VL: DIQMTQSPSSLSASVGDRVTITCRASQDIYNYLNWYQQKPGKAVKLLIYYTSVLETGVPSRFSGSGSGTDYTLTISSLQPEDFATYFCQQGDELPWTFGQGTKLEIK | Fold improvement in KD | 2440 |
| 56BLH (Fab, V domains shown, also called 08BLM Fab) VH: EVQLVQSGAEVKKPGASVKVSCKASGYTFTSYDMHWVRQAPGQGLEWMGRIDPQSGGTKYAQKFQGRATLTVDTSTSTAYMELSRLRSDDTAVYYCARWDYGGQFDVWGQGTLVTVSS VL: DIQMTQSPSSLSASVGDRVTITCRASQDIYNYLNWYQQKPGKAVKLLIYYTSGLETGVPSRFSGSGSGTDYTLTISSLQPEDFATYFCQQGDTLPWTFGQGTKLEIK | Fold improvement in KD | 9760 |

Q. Which Fold improvement in KD value is on record for 55BLH (Fab, V domains shown, also called 07BLM Fab) VH: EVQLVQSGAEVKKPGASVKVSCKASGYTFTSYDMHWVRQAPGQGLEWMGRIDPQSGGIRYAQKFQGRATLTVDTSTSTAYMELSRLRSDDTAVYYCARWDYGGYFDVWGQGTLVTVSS VL: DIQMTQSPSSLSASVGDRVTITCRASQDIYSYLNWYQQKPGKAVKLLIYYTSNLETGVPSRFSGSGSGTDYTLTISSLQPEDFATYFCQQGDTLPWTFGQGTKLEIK ?
A. 992

Q. # iterate: 20E6 Fab (80BGJ/85BIT) (Fab, V domains shown, also called 20E6 (80BGJ); 20E6 (85BIT)) VH: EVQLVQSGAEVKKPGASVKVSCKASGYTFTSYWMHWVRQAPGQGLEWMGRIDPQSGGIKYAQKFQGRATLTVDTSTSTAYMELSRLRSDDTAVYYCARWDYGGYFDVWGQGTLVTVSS VL: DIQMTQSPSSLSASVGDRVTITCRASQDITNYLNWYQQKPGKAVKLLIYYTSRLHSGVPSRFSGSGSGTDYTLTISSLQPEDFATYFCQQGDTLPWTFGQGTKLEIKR
A. 1

Q. Then what about the binder 67BLH (Fab, V domains shown, also called 19BLM Fab) VH: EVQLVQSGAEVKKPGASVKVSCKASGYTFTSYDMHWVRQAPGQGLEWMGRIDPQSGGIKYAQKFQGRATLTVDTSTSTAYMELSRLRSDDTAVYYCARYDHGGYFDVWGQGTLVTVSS VL: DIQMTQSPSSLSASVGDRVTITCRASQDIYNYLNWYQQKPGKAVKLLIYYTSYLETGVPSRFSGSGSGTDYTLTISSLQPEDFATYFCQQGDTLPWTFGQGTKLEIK ?
A. 61

Q. Input 59BLH (Fab, V domains shown, also called 11BLM Fab) VH: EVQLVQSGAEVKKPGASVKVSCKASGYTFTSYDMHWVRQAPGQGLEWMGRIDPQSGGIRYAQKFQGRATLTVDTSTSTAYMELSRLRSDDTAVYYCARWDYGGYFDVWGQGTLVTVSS VL: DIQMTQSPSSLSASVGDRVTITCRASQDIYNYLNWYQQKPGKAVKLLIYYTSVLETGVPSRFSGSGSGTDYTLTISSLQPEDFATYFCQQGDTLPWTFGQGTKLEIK
A. 887

Q. Repeat with 54BLH (Fab, V domains shown, also called 06BLM Fab) VH: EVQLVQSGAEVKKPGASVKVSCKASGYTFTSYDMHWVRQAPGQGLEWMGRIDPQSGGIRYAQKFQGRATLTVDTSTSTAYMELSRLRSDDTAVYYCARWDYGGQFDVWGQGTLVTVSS VL: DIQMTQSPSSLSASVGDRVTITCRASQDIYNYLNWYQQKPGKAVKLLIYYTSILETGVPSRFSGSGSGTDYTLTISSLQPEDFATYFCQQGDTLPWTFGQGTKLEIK
A. 14600
